biological target: UniProt J9VFT1; experiment: Acs coupled kinetic pyrophosphate; format: biochemical
experimental readout: inhibition of CnAcs1 (in words)

- COP(=O)(O)OCC1OC(n2cnc3c(N)ncnc32)C(O)C1O (centres unmarked): completely inactive
- CN(Cc1ccon1)C(=O)c1cccc(-c2ccc(F)cc2)c1: completely inactive

---

Biological target: CnAcs1 (Cryptococcus neoformans, UniProt J9VFT1)
Sequence (J9VFT1 1-680): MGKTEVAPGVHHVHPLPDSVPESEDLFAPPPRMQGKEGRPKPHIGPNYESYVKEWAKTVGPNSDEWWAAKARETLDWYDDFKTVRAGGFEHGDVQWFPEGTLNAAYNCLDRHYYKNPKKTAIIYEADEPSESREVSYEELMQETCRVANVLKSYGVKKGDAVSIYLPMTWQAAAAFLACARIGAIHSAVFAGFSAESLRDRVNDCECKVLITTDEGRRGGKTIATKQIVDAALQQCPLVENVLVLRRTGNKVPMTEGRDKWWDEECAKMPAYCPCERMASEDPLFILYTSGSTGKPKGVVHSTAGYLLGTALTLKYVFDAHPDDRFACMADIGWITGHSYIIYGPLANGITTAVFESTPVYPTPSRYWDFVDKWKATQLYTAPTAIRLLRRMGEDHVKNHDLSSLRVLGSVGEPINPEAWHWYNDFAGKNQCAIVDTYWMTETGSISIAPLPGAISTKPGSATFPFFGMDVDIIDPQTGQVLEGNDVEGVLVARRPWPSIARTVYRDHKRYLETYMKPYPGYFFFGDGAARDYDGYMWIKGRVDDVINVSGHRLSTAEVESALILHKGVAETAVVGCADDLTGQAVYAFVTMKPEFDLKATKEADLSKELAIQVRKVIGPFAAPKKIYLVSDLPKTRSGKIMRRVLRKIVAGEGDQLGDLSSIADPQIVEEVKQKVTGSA
experimental readout: pKi
# log scale: pKi equals minus log10 of the concentration in mol/L

Prompt: Recorded pKi of O=C(NNC(=O)c1csnn1)c1ccc(Cl)cc1 , please.
Response: 5.39
